study_target: T1, His6-BRD^Baz2B (bromodomain of human Baz2B, wild-type) (human, UniProt Q9UIF8 2054-2168, fluorescent label (Monolith NT Protein Labelling Kit RED-NHS))
T1 construct: bromodomain (BRD) of human Baz2B, from plasmid pNIC28-Bsa4-BAZ2B-BRD; also called BAZ2B-BRD; source: E. coli BL21(DE3)-R3-pRARE2, purified (Ni-NTA, Sephadex 75)
T1 sequence: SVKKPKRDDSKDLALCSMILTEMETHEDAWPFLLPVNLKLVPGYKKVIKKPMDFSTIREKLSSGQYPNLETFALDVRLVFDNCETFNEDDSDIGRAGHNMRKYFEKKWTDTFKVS
experiment_description: MST; 100 nM fluorescently labelled (RED-NHS) BRD^Baz2B, peptide (H3 or H3K14ac) titrated; MST buffer 150 mM Tris-HCl, 50 mM NaCl, 10 mM MgCl2, pH 7.6, 0.0025% Pluronic, 200 ng/ul BSA; 25 C, 20% MST power; at least triplicate
cond: both partners purified
property_label: Kd (µM)
Value expressed in µM; do not type the unit.

Enquiry: Identify Kd associated with the binder Ac-TARKSTGGKAPRKQL-NH2 (N-terminal tail of histone H3, residues 6-20; also called unmodified H3 peptide; unmodified H3K14 tail peptide; source: synthetic peptide, bought: alta Bioscience) [H3 peptide (Ac-TARKSTGGKAPRKQL-NH2)]
Return: 288
